Test system: NK-92 (IL-2 2.5 ng/mL)
Experiment: percent inhibition of viability; higher = more inhibition
Settings: 72 h; 1000 nM
Values of percent inhibition of viability strictly less than 30% map to rule met, and values of at least 30% map to rule not met.

Check out these entries, answers already filled in.
Below 30% on percent inhibition of viability? Entry COC1=CC(c2cc3ccccc3[nH]2)=N/C1=C\c1[nH]c(C)cc1C [Obatoclax] (max concentration tested 10000 nM) rule not met

Identify whether the compound CC[C@@H]1C(=O)N(C)c2cnc(Nc3ccc(C(=O)NC4CCN(C)CC4)cc3OC)nc2N1C1CCCC1 [BI 2536] (max concentration tested 1000 nM) records percent inhibition of viability below 30%. rule not met

Determine if CN(C)C1CCN(C(=O)c2ccc(NC(=O)Nc3ccc(-c4nc(N5CCOCC5)nc(N5CCOCC5)n4)cc3)cc2)CC1 [Gedatolisib] (max concentration tested 1000 nM) shows percent inhibition of viability strictly lower than 30%. rule met

Threshold test, percent inhibition of viability < 30%: FC(F)c1nc2ccccc2n1-c1nc(N2CCOCC2)nc(N2CCOCC2)n1 [ZSTK474] (max concentration tested 10000 nM) rule not met

Would you kindly look at the next entry?
Lab note: confirm whether the reported percent inhibition of viability for this compound is below 30%, equality not counting. compound: Cc1cc(C)c(/C=C2\C(=O)Nc3ccccc32)[nH]1 [Semaxanib] (max concentration tested 10000 nM) rule met

###

Tested on: normal primary NK cells, pool 1 (3 donors), resting (IL-2 0 ng/mL)
Assay: percent inhibition of viability; higher = more inhibition
Conditions: 72 h; 10 nM
assay-metric: percent inhibition of viability (%)
I only need the number, in %, no unit after it.

What percent inhibition of viability appears in the records for this compound with normal primary NK cells, pool 1 (3 donors), resting (IL-2 0 ng/mL)? COc1cc(OC2CCN(C)CC2)ccc1Nc1ncc2c(n1)n(C1CCCC1)c(=O)n2C [AZ 3146] (max concentration tested 10000 nM) -6.36

###

Tested on: KHYG-1 (IL-2 2.5 ng/mL)
Assay: percent inhibition of viability; higher = more inhibition
Conditions: 72 h; 100 nM
// reported percent inhibition of viability per item
Field: numeric (%). Do not append units.

Answered examples (6):
Reported percent inhibition of viability for KHYG-1 (IL-2 2.5 ng/mL), given COc1cc2/c(=N/c3ccc(Br)cc3F)nc[nH]c2cc1OCC1CCN(C)CC1 [Vandetanib] (max concentration tested 1000 nM) ? 2.56

Fill in the recorded percent inhibition of viability for this compound, with KHYG-1 (IL-2 2.5 ng/mL) as test system: c1ccc2c(CCNc3ccc(Nc4ccncc4)cc3)c[nH]c2c1 [Serdemetan] (max concentration tested 10000 nM) -1.91

Observed percent inhibition of viability on KHYG-1 (IL-2 2.5 ng/mL) for C#Cc1cccc(Nc2ncnc3cc(OC)c(OCCCCCCC(=O)NO)cc23)c1 [CUDC-101] (max concentration tested 10000 nM) , please. 36.4

Please state recorded percent inhibition of viability (tested on KHYG-1 (IL-2 2.5 ng/mL)) of O=C(/C=C/c1cccc(S(=O)(=O)Nc2ccccc2)c1)NO [Belinostat] (max concentration tested 10000 nM) 35

What percent inhibition of viability appears in the records for this compound with KHYG-1 (IL-2 2.5 ng/mL)? Oc1ccc2c(c1)CC[C@H](c1ccccc1)[C@@H]2c1ccc(OCCN2CCCC2)cc1 [Lasofoxifene] (max concentration tested 1000 nM) 5.02

# value lookup — system KHYG-1 (IL-2 2.5 ng/mL), readout percent inhibition of viability, item Clc1ccc(C(c2ccccc2Cl)C(Cl)Cl)cc1 (stereo not drawn) [Mitotane] (max concentration tested 10000 nM) -6.75

***
// fetch KHYG-1 (IL-2 2.5 ng/mL) percent inhibition of viability for CCCS(=O)(=O)Nc1ccc(F)c(C(=O)c2c[nH]c3ncc(-c4ccc(Cl)cc4)cc23)c1F [Vemurafenib] (max concentration tested 10000 nM) 3.43

###

# Lookup of reported drug sensitivity score keyed by entry
Test system: normal primary NK cells, pool 2 (3 donors) (IL-2 2.5 ng/mL)
Assay: drug sensitivity score (DSS) (DSS units); higher = more sensitive; extreme values may be limits of the assay
Conditions: 72 h
Lab note: record just the number, no unit beside it.

Examples with their reported drug sensitivity score follow.
Entry CC[C@@]1(O)C(=O)OCc2c1cc1n(c2=O)Cc2cc3ccccc3nc2-1 [Camptothecin] (max concentration tested 5000 nM) : reported drug sensitivity score = ? 6.31

So what does the record say about drug sensitivity score for COc1cccc2c1C(=O)c1c(O)c3c(c(O)c1C2=O)C[C@@](O)(C(=O)CO)C[C@@H]3O[C@H]1C[C@H](N)[C@H](O)[C@H](C)O1 [Doxorubicin] (max concentration tested 1000 nM) ? 10.2

***
Entry under review: CNC(=O)c1cc(COc2nnc(Nc3ccc(Cl)cc3)c3ccoc23)ccn1 [Telatinib] (max concentration tested 10000 nM) . Reported drug sensitivity score? 0

###

Reported percent inhibition of viability by item:
Test system: SNK-6 (IL-2 2.5 ng/mL)
Assay: percent inhibition of viability; higher = more inhibition
Conditions: 72 h; 10 nM
Units required after the number.

Please give the measured percent inhibition of viability for this molecule: CNC(=O)c1ccc(-c2cnc3ncc(Cc4ccc5ncccc5c4)n3n2)cc1F [NVP-INC280] (max concentration tested 1000 nM) 8.68%

Name the recorded percent inhibition of viability for CNC(=O)CN1CCC(Oc2cc3c(Nc4cccc(Cl)c4F)ncnc3cc2OC)CC1 [Sapitinib] (max concentration tested 1000 nM) . 21.3%

So what does the record say about percent inhibition of viability for CCc1cncnc1N1CCN(Cc2nc3ccc(C(F)(F)F)cc3[nH]2)CC1 (max concentration tested 10000 nM) ? -9.08%

Using the record for CO[C@H]1C[C@@H]2CC[C@@H](C)[C@@](O)(O2)C(=O)C(=O)N2CCCC[C@H]2C(=O)O[C@H]([C@H](C)C[C@@H]2CC[C@@H](OP(C)(C)=O)[C@H](OC)C2)CC(=O)[C@H](C)/C=C(\C)[C@@H](O)[C@@H](OC)C(=O)[C@H](C)C[C@H](C)/C=C/C=C/C=C/1C [Ridaforolimus] (max concentration tested 100 nM) , report its percent inhibition of viability. 46%

Here is another molecule to look at.
Give its percent inhibition of viability value. Item: C=CCc1cccc(/C=N/NC(=O)CN2CCN(Cc3ccccc3)CC2)c1O [PAC-1] (max concentration tested 10000 nM) 3.22%

###

Test system: YT (IL-2 2.5 ng/mL)
Test: percent inhibition of viability; higher = more inhibition
Details: 72 h; 2.5 nM
assay-metric: percent inhibition of viability (%)
Numbers only here, please. The scale is %.

Worked cases, percent inhibition of viability given:
Given the entry CC(=O)Nc1cccc(-n2c(=O)n(C3CC3)c(=O)c3c(Nc4ccc(I)cc4F)n(C)c(=O)c(C)c32)c1 [Trametinib] (max concentration tested 250 nM) , report its measured percent inhibition of viability. 0.86

Entry under review: COc1ccc(CCc2nc3cc(-c4c(C)noc4C)ccc3n2C[C@H](C)N2CCOCC2)cc1Cl [SGC-CBP30] (max concentration tested 25000 nM) . Reported percent inhibition of viability? -1.31

Returns the measured percent inhibition of viability for the input compound. Input: CC(C)(O)CC(=O)NCCn1ccc2ncnc(Nc3ccc(Oc4cccc(C(F)(F)F)c4)c(Cl)c3)c21 [TAK-285] (max concentration tested 2500 nM) -3.2

# input for lookup
What value of percent inhibition of viability has been recorded for this entry: CCOc1ccn(-c2ccc(F)cc2)c(=O)c1C(=O)Nc1ccc(Oc2ccnc(N)c2Cl)c(F)c1 (max concentration tested 2500 nM) 4.23

###

Test system: NK-YS (IL-2 2.5 ng/mL)
Experiment: percent inhibition of viability; higher = more inhibition
Conditions: 72 h; 1 nM
Quick list: percent inhibition of viability per entry.
Express your answer in %, writing the number without its unit.

Which percent inhibition of viability is reported with NK-YS (IL-2 2.5 ng/mL) for this entry: CC[C@H](NC(=O)[C@H](C)NC)C(=O)N1C[C@@H](O)C[C@H]1Cc1c(-c2[nH]c3cc(F)ccc3c2C[C@@H]2C[C@H](O)CN2C(=O)[C@H](CC)NC(=O)[C@H](C)NC)[nH]c2cc(F)ccc12 [Birinapant] (max concentration tested 1000 nM) ? -9.14

Query the reported percent inhibition of viability for NK-YS (IL-2 2.5 ng/mL); item: CN1CCC(COc2cnc(-c3cccc(Cn4nc(-c5cccc(C#N)c5)ccc4=O)c3)nc2)CC1 (max concentration tested 1000 nM) -6.91

Checklist item: percent inhibition of viability tested on NK-YS (IL-2 2.5 ng/mL), entry C[C@]1(O)C[C@@H](c2nc(-c3ccc4ccc(-c5ccccc5)nc4c3)c3c(N)nccn32)C1 [Linsitinib] (max concentration tested 10000 nM) , value? -6.48

Under NK-YS (IL-2 2.5 ng/mL): percent inhibition of viability value of O=C(Nc1cccnc1)N1CCC(Cc2cccc(Oc3ccc(C(F)(F)F)cn3)c2)CC1 [PF-3845] (max concentration tested 10000 nM) ? 4.37

# get_value(readout= percent inhibition of viability, system= NK-YS (IL-2 2.5 ng/mL)) for Nc1nccc(-c2c(-c3ccc(F)cc3)ncn2C2CCCCC2)n1 (max concentration tested 10000 nM) -3.68

Lab note: need percent inhibition of viability with NK-YS (IL-2 2.5 ng/mL) for entry CCCS(=O)(=O)Nc1ccc(F)c(C(=O)c2c[nH]c3ncc(-c4ccc(Cl)cc4)cc23)c1F [Vemurafenib] (max concentration tested 10000 nM) , please look it up. -2.8

What percent inhibition of viability appears in the records for this compound with NK-YS (IL-2 2.5 ng/mL)? COc1cc2nccc(Oc3ccc(NC(=O)Nc4cc(C)on4)c(Cl)c3)c2cc1OC [Tivozanib] (max concentration tested 10000 nM) -1.25

Request: percent inhibition of viability, test system NK-YS (IL-2 2.5 ng/mL), entry Cc1cc(C)c(/C=C2\C(=O)Nc3ccccc32)[nH]1 [Semaxanib] (max concentration tested 10000 nM) -0.44

Further cases:
percent inhibition of viability of Cn1cnc2c(F)c(Nc3ccc(Br)cc3F)c(C(=O)NOCCO)cc21 [Binimetinib] (max concentration tested 1000 nM) on NK-YS (IL-2 2.5 ng/mL)? -2.09

Give NK-YS (IL-2 2.5 ng/mL) percent inhibition of viability for CC(C)(C)c1cnc(CSc2cnc(NC(=O)C3CCNCC3)s2)o1 [SNS-032] (max concentration tested 10000 nM) -1.14

// lookup percent inhibition of viability | system=NK-YS (IL-2 2.5 ng/mL) | key= Cc1cc(C)c(CNC(=O)c2cc(-c3ccc(CN4CCOCC4)cc3)cc3c2cnn3C2CCCC2)c(=O)[nH]1 [EPZ-5687] (max concentration tested 10000 nM) -6.64

Param readout= percent inhibition of viability; system= NK-YS (IL-2 2.5 ng/mL); entry= Nc1nc(N)c2nc(-c3cccc(O)c3)c(-c3cccc(O)c3)nc2n1 [TG100-115] (max concentration tested 10000 nM) ; returns value. -1.11

NK-YS (IL-2 2.5 ng/mL) / percent inhibition of viability / CC(=O)O[C@H]1C(=O)[C@@]2(C)[C@H]([C@H](OC(=O)c3ccccc3)[C@]3(O)C[C@H](OC(=O)[C@H](O)[C@@H](NC(=O)c4ccccc4)c4ccccc4)C(C)=C1C3(C)C)[C@]1(OC(C)=O)CO[C@@H]1C[C@@H]2O [Paclitaxel] (max concentration tested 1000 nM) : value? -5.4

Short answer please: percent inhibition of viability, NK-YS (IL-2 2.5 ng/mL), entry Cc1ccccc1C(C(=O)NC1CCCCC1)N(C(=O)Cn1ccnc1C)c1cccc(F)c1 (stereo not drawn) [AGI-5198] (max concentration tested 10000 nM) 1.52

What percent inhibition of viability appears in the records for this compound with NK-YS (IL-2 2.5 ng/mL)? COc1cc2c(NC3CCN(C(C)C)CC3)nc(N3CCC(F)(F)CC3)nc2cc1OCCCN1CCCC1 [UNC0642] (max concentration tested 10000 nM) -3.38

Could you share what percent inhibition of viability was measured for O=c1[nH]cc(F)c(=O)[nH]1 [Fluorouracil] (max concentration tested 10000 nM) , tested on NK-YS (IL-2 2.5 ng/mL)? -1.75

Query the reported percent inhibition of viability for NK-YS (IL-2 2.5 ng/mL); item: Nc1ccn([C@@H]2O[C@H](CO)[C@@H](O)[C@@H]2O)c(=O)n1 [Cytarabine] (max concentration tested 10000 nM) -6.32

Give percent inhibition of viability (NK-YS (IL-2 2.5 ng/mL)) of the following compound: C=C1C[C@@H]2[C@H](CC[C@]3(C)C(=O)CC[C@@H]23)[C@@]2(C)C=CC(=O)C=C12 [Exemestane] (max concentration tested 10000 nM) -2.57

Kindly state the measured percent inhibition of viability obtained for CNC(=O)CN1CCC(Oc2cc3c(Nc4cccc(Cl)c4F)ncnc3cc2OC)CC1 [Sapitinib] (max concentration tested 1000 nM) with NK-YS (IL-2 2.5 ng/mL). 0.23

Which percent inhibition of viability is reported with NK-YS (IL-2 2.5 ng/mL) for this entry: CNC(=O)c1cc(COc2nnc(Nc3ccc(Cl)cc3)c3ccoc23)ccn1 [Telatinib] (max concentration tested 10000 nM) ? -3.24

Give percent inhibition of viability (NK-YS (IL-2 2.5 ng/mL)) of the following compound: C[C@@H](Nc1cc(F)cc(F)c1)c1cc(C(=O)N(C)C)cc2c(=O)cc(N3CCOCC3)oc12 [AZD-8186] (max concentration tested 1000 nM) -6.92

Find the measured percent inhibition of viability: item CC(C)(C)c1cc(NC(=O)Nc2ccc(-c3cn4c(n3)sc3cc(OCCN5CCOCC5)ccc34)cc2)no1 [Quizartinib] (max concentration tested 1000 nM) , target or system NK-YS (IL-2 2.5 ng/mL). -6.94

Recorded percent inhibition of viability for Cc1ccc(F)c(NC(=O)Nc2ccc(-c3cccc4[nH]nc(N)c34)cc2)c1 [Linifanib] (max concentration tested 1000 nM) with NK-YS (IL-2 2.5 ng/mL), please? -8.05
